B1: r11_951_TrROS_Hall (parent)
chain: KKKYVIKVYFEDTGKEVEIEAESKEEALEAAKRLAEELGLKIKKVEIYP

# Variants of: B1
# experimental-details: folding stability dG (cDNA display proteolysis); higher = more stable
# measurement-conditions: PBS, room temperature

variant-string: K7L
folding stability dG / kcal/mol: 4.09
//
variant-string: K15M
folding stability dG / kcal/mol: 4.16
//
variant-string: A31I
folding stability dG / kcal/mol: 4.2
//
variant-string: K24A
folding stability dG / kcal/mol: 4.55
//
variant-string: S23R
folding stability dG / kcal/mol: 4
//
variant-string: V5I
folding stability dG / kcal/mol: 4.29
//
variant-string: P49H
folding stability dG / kcal/mol: 4.93
//
variant-string: K1T
folding stability dG / kcal/mol: 4.5
//
variant-string: V8W
folding stability dG / kcal/mol: 4.03
//
variant-string: D12K
folding stability dG / kcal/mol: 4.62
//
variant-string: V5Y
folding stability dG / kcal/mol: 4.37
